Taken from paper PMC9482650.

Molecular target: MAST1, Q9Y2H9
Sequence (Q9Y2H9 962-1065): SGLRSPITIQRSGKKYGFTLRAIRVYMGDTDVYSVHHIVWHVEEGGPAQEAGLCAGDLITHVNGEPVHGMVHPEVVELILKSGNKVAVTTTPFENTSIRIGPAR
Test: holdup assay
Set-up: key: below the threshold = too weak to quantify, mostly under pKd 3.1 to 4
Settings: plain residues with an end cap or a label only (N-terminal biotin on a linker: ttds)
Readout kind: pKd

> print(dat)
                         binder                value
1   VLRLQSETSV [VANGL1, Q8TAA9]  below the threshold
2     ERKLSSESQV [LRP4, O75096]  below the threshold
3  PKTPPTDTSV [KIR3DL3, Q8N743]  below the threshold
